Each entry below carries its recorded glycan array binding signal (z-score).
molecular target: Neu5Ac(a2-3)Gal(b1-3)[GlcNAc(b1-6)]GalNAc; assay: glycan array binding signal (z-score within array); higher = stronger binding; conditions: glycan notation: IUPAC condensed, linker removed
About 410 targets per protein were measured; listed, in parts, are those with the strongest signals and a random draw of the rest.
Quick one: just the number, no unit, thanks!

Look over these answered cases.
Dectin2 (Homo sapiens), Q6EIG7 (protein) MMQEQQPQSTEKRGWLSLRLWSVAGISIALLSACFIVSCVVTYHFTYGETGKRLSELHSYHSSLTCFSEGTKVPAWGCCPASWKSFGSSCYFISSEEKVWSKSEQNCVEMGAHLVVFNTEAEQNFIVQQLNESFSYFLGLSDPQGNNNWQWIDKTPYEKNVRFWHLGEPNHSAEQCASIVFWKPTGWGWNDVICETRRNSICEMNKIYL	-0.193
Actd5 (Actinidia), P84527 (protein) ISSCNGPCRDLNDCDGQLICIKGKCNDDPQVGTHICRGTTHSHQPGGCKPSGTLTCRGKSYPTYDCSPPVTSSTPAKLTNNDFSEGGDDGGPSECDESYHNNNERIVALSTGWYNGGSRCGKMIRITASNGKSVSAKVVDECDSRHGCDKEHAGQPPCRNNIVDGSNAVWSALGLDKNVGVVDITWSMA	-0.32
PhypaEULS3 (Physcomitrella patens) (protein) MLPVRLHCKADPNFNLAAVPGQGPVMVPFSPNDDFQVWYKDVTMSTRVKDETGSSAFSLINKATGQALRHAPEDLAQCLLADYDSNALDQTVLWTMSEDMGQGYCCIRLASQITRNLDVFRGDKKSGGVKEGSPVITFAWKKQDNQIWKMITAILEQKLISEEDLNSAVDHHHHHH	3.83

Just so you know, measured glycan array binding signal (z-score) for CTAEGIKKFEGDGYELFKDNFPAGEKFDNDDTNDQFYTVIF [MUB40 (Lactobacillus reuteri)] came out at 1.11

The measured values listed here are drawn from the supplement of paper PMC8728848.
